target: T1, human TfR ectodomain fused to a mouse IgG1 Fc fragment (human, UniProt P02786 89-760); assay: SPR, at equilibrium
T1 construct: extracellular domain; ectodomain fused to the N-terminal end of the Fc, made in-house; not shown: mouse IgG1 Fc fragment
T1 sequence (P02786 89-760): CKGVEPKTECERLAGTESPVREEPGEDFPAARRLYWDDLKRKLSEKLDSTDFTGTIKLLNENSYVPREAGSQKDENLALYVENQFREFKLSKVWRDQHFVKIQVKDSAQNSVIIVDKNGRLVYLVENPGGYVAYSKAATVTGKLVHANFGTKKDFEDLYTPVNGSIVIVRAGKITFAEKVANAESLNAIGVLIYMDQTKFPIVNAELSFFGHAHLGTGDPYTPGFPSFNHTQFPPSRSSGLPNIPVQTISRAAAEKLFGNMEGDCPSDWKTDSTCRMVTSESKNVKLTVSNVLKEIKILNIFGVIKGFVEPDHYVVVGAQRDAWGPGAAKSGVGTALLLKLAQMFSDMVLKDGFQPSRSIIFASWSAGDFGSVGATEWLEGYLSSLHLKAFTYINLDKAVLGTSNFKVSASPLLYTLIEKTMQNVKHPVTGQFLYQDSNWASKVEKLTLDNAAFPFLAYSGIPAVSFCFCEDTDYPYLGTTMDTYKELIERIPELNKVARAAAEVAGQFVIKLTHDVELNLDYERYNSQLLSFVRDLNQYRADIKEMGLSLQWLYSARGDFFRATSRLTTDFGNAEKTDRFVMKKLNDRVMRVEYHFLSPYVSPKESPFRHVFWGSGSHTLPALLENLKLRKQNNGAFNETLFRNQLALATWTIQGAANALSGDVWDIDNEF
metric: Kd (nM)
Numbers only, in nM.

Sample answers from the record:
B8^V38 (VHH) VHH: EVQLVESGGGVVQPGGSLRLSCAASGEIRSINFMRWYRQAPGKQREWVAGFTRTGSTNYPDSAKGRFTISRDNAKNTVYLQIDSLKPEDTAVYYCYMLDTWGQGTQVTVSS | 35.8
B8^V34 (VHH) VHH: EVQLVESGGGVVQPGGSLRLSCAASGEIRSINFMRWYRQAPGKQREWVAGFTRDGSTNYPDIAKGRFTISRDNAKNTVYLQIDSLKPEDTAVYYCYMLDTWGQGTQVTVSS | 32.4
C5^V31 (VHH) VHH: EVQLVESGGGVVQPGGSLKLSCVASGTDRSINFIRWYRQAPGKQREFVAGFTATGNTNYADSMKGRFTISRDNTKNAVYLQIDSLKPEDTAVYYCYMLDKWGQGTQVTVSS | 64.8

Provide reported Kd for each item, in the same order as listed.
1. B8^V27 (VHH) VHH: EVQLVESGGGVVQPGGSLRLSCAASGEIFSINFMRWYRQAPGKQREWVAGFTRDGSTVYPDSAKGRFTISRDNAKNTVYLQIDSLKPEDTAVYYCYMLDTWGQGTQVTVSS
2. B8^V29 (VHH) VHH: EVQLVESGGGVVQPGGSLRLSCAASGEIFSINFMRWYRQAPGKQREWVAGFTRDGSTNYPDSAKGRFTISRDNAKNTVYLQIDSLKPEDTAVYYCYMADTWGQGTQVTVSS
3. B8^V22 (VHH) VHH: EVQLVESGGGVVQPGGSLRLSCAASGEIFSINQMRWYRQAPGKQREWVAGFTRDGSTNYPDSAKGRFTISRDNAKNTVYLQIDSLKPEDTAVYYCYMLDTWGQGTQVTVSS

result:
3.22
21.8
480

Field: Kd. Fill in for each record below.
1. B8^V39 (VHH) VHH: EVQLVESGGGVVQPGGSLRLSCAASGEIFKINFMRWYRQAPGKQREWVAGFTRDGSTNYPDSAKGRFTISRDNAKNTVYLQIDSLKPEDTAVYYCYMLDTWGQGTQVTVSS
2. C5^V32 (VHH) VHH: EVQLVESGGGVVQPGGSLKLSCVASGTDFSINFIRWYSQAPGKQREFVAGFTATGNTNYADSMKGRLTISRDNTKNAVYLQIDSLKPEDTAVYYCYMLGKWGQGTQVTVSS
3. B8^V16 (VHH) VHH: EVQLVESGGGVVQPGGSLRLSCAASGEIFSINFMRWYRQAPGKQREQVAGFTRDGSTNYPDSAKGRFTISRDNAKNTVYLQIDSLKPEDTAVYYCYMLDTWGQGTQVTVSS
4. C5^h25 (VHH) VHH: EVQLVESGGGVVQPGGSLRLSCAASGTDFSINFIRWVRQAPGKGLEFVAGFTATGNTNYADSVKGRFTISRDNAKNTLYLQIDSLRPEDTAVYYCYMLDKWGQGTQVTVSS
5. B8^V31 (VHH) VHH: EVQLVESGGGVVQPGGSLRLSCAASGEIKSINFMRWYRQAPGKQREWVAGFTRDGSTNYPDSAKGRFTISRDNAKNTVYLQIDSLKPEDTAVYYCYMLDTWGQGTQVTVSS
6. B8^V35 (VHH) VHH: EVQLVESGGGVVQPGGSLRLSCAASGEIRSINFMRWYRQAPGKQREWVAGFTRDGSLNYPDSAKGRFTISRDNAKNTVYLQIDSLKPEDTAVYYCYMLDTWGKGTQVTVSS

result:
40.3
38.6
76.3
1550
63.8
23.9

Batch lookup, Kd per entry.
1. B8^V40 (VHH) VHH: EVQLVESGGGVVQPGGSLRLSCAASGEIKSINFMRWYRQAPGKQREWVSGFTRDGSTNYPDSAKGRFTISRDNAKNTVYLQIDSLKPEDTAVYYCYMLDTWGQGTQVTVSS
2. VHH A18 (C5^V18) (VHH) VHH: EVQLVESGGGVVQPGGSLKLSCVASGTDFSINFIRWYRQAPGKQREFVAGFTATGNTNYADSMKGRFTISRDNTKNAVYLQIDSLKPEDTAVYYCYMVDKWGQGTQVTVSS
3. VHH A19 (C5^V19) (VHH) VHH: EVQLVESGGGVVQPGGSLKLSCVASGTDFSINFIRWYRQAPGKQREFVAGFTATGNTNYADSMKGRFTISRDNTKNAVYLQIDSLKPEDTAVYYCYMLEKWGQGTQVTVSS
4. B8^V37 (VHH) VHH: EVQLVESGGGVVQPGGSLRLSCAASGEIFSINFMRWYRQAPGKQREWVAGFTRDGSTNYPDSAKGRFTISEDNAKNTVYLQIDSLKPEDTAVYYCYMLRTWGQGTQVTVSS
5. C5^h18 (VHH) VHH: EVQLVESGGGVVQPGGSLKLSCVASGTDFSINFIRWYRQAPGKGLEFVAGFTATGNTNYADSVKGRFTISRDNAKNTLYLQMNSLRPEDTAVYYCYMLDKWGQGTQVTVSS

result:
[42.5, 37.8, 7.13, 75.5, 27.3]

query: // returns reported Kd for input B8^V36 (VHH) VHH: EVQLVESGGGVVQPGGSLRLSCAASGEIFSINVMRWYRQAPGKQREWVAGFTRDGSTNYPDSAKGRFTISRDNAKNTVYLQIDSLKPEDTAVYYCYMLDTWGQGTQVTVSS
result: 39.2
